target_or_test_system: UniProt A7XBP7
assay_protocol: Inhibition of acetolactate synthase Pro-197/Pro-197 mutant in Lolium rigidum accession A10 leaves extracts by acetolactate production assay
particulars: read-out: I50
Sequence (A7XBP7 1-516, change not shown): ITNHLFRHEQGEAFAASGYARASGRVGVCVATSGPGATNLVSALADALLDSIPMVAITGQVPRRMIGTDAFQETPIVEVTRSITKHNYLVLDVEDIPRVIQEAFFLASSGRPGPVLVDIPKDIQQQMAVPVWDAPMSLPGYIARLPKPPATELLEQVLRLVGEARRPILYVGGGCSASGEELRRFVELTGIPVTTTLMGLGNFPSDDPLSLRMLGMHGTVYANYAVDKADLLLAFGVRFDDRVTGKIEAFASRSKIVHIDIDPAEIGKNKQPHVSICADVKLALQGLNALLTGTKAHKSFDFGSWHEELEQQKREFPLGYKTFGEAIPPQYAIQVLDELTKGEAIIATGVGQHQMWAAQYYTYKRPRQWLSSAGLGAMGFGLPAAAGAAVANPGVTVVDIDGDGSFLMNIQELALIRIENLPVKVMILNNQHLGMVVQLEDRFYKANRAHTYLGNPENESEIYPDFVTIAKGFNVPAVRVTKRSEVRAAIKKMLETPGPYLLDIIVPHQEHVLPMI
readout_label: pIC50
Reminder that pIC50 means the negative base-10 logarithm of the concentration expressed in mol/L.

INPUT: Fill blank: measured pIC50 of the compound COc1nc(C)nc(NC(=O)NS(=O)(=O)c2ccccc2Cl)n1 [CHLORSULFURON] is ____.
OUTPUT: 7.40

* * *

target_or_test_system: Acetolactate synthase (Lolium rigidum)
assay_protocol: Inhibition of acetolactate synthase Ala-197/Ala-197 mutant in Lolium rigidum accession A16 leaves extracts by acetolactate production assay
particulars: read-out: I50
readout_label: IC50

INPUT: Fill blank: measured IC50 of the molecule COc1nc(C)nc(NC(=O)NS(=O)(=O)c2ccccc2Cl)n1 [CHLORSULFURON] is ____.
OUTPUT: 7.71 µM

* * *

target_or_test_system: Acetolactate synthase (Lolium rigidum, UniProt A7XBP7)
assay_protocol: Inhibition of acetolactate synthase Ala-197/Ala-197 mutant in Lolium rigidum accession A20 leaves extracts by acetolactate production assay
particulars: read-out: I50
readout_label: pIC50
Reminder that pIC50 means the negative base-10 logarithm of the concentration expressed in mol/L.

INPUT: Fill blank: measured pIC50 of the compound "COc1nc(C)nc(NC(=O)NS(=O)(=O)c2ccccc2Cl)n1" is ____.
OUTPUT: 5.96

* * *

target_or_test_system: Acetolactate synthase (Lolium rigidum)
assay_protocol: Inhibition of acetolactate synthase Pro-197/Pro-197 mutant in Lolium rigidum accession A11 leaves extracts by acetolactate production assay
particulars: read-out: I50
readout_label: pIC50
Reminder that pIC50 means the negative base-10 logarithm of the concentration expressed in mol/L.

INPUT: Fill blank: measured pIC50 of the molecule "COc1nc(C)nc(NC(=O)NS(=O)(=O)c2ccccc2Cl)n1" is ____.
OUTPUT: 7.52

* * *

target_or_test_system: UniProtKB A7XBP7
assay_protocol: Inhibition of acetolactate synthase Ala-197/Ala-197 mutant in Lolium rigidum accession A06 leaves extracts by acetolactate production assay
particulars: read-out: I50
readout_label: IC50 (µM)
A number alone suffices; assume µM.

INPUT: Fill blank: measured IC50 of the compound "COc1nc(C)nc(NC(=O)NS(=O)(=O)c2ccccc2Cl)n1" is ____.
OUTPUT: 14.1

* * *

target_or_test_system: Acetolactate synthase (Lolium rigidum)
assay_protocol: Inhibition of acetolactate synthase Leu-197/Leu-197 mutant in Lolium rigidum accession A08 leaves extracts by acetolactate production assay
particulars: read-out: I50
readout_label: pIC50
Reminder that pIC50 means the negative base-10 logarithm of the concentration expressed in mol/L.

INPUT: Fill blank: measured pIC50 of the molecule "COc1nc(C)nc(NC(=O)NS(=O)(=O)c2ccccc2Cl)n1" is ____.
OUTPUT: 4.77

* * *

target_or_test_system: Acetolactate synthase (Lolium rigidum, UniProt A7XBP7, P197R/P197S)
assay_protocol: Inhibition of acetolactate synthase Pro-197/Arg-197 or Pro-197/Ser-197 or Pro/Val or Ala/Leu mutant in Lolium rigidum accession A17 leaves extracts by acetolactate production assay
particulars: read-out: I50
readout_label: IC50 (nM)
A number alone suffices; assume nM.

INPUT: Fill blank: measured IC50 of the compound "COc1nc(C)nc(NC(=O)NS(=O)(=O)c2ccccc2Cl)n1" is ____.
OUTPUT: 870

* * *

target_or_test_system: UniProt:A7XBP7
assay_protocol: Inhibition of acetolactate synthase Ala-197/Ala-197 mutant in Lolium rigidum accession A19 leaves extracts by acetolactate production assay
particulars: read-out: I50
readout_label: IC50 (µM)
A number alone suffices; assume µM.

INPUT: Fill blank: measured IC50 of the compound COc1nc(C)nc(NC(=O)NS(=O)(=O)c2ccccc2Cl)n1 [CHLORSULFURON] is ____.
OUTPUT: 18.6

* * *

target_or_test_system: UniProtKB A7XBP7
assay_protocol: Inhibition of acetolactate synthase Ala-197/Ala-197 mutant in Lolium rigidum accession A05 leaves extracts by acetolactate production assay
particulars: read-out: I50
readout_label: pIC50
Reminder that pIC50 means the negative base-10 logarithm of the concentration expressed in mol/L.

INPUT: Fill blank: measured pIC50 of the compound "COc1nc(C)nc(NC(=O)NS(=O)(=O)c2ccccc2Cl)n1" is ____.
OUTPUT: 5.31

* * *

target_or_test_system: Acetolactate synthase (Lolium rigidum, UniProt A7XBP7)
assay_protocol: Inhibition of acetolactate synthase Pro-197/Pro-197 mutant in Lolium rigidum accession A09 leaves extracts by acetolactate production assay
particulars: read-out: I50
readout_label: IC50 (nM)
A number alone suffices; assume nM.

INPUT: Fill blank: measured IC50 of the compound COc1nc(C)nc(NC(=O)NS(=O)(=O)c2ccccc2Cl)n1 [CHLORSULFURON] is ____.
OUTPUT: 30

* * *

target_or_test_system: Acetolactate synthase (Lolium rigidum, UniProt A7XBP7)
assay_protocol: Inhibition of acetolactate synthase Ser-197/Ser-197 mutant in Lolium rigidum accession A21 leaves extracts by acetolactate production assay
particulars: read-out: I50
readout_label: pIC50
Reminder that pIC50 means the negative base-10 logarithm of the concentration expressed in mol/L.

INPUT: GET /values?readout=pIC50&system=Acetolactate synthase (Lolium rigidum, UniProt A7XBP7)&item= "COc1nc(C)nc(NC(=O)NS(=O)(=O)c2ccccc2Cl)n1"
OUTPUT: 5.80

* * *

target_or_test_system: Acetolactate synthase (Lolium rigidum, UniProt A7XBP7)
assay_protocol: Inhibition of acetolactate synthase Leu-197/Leu-197 mutant in Lolium rigidum accession A18 leaves extracts by acetolactate production assay
particulars: read-out: I50
readout_label: IC50 (nM)
A number alone suffices; assume nM.

INPUT: GET /values?readout=IC50&system=Acetolactate synthase (Lolium rigidum, UniProt A7XBP7)&item= "COc1nc(C)nc(NC(=O)NS(=O)(=O)c2ccccc2Cl)n1"
OUTPUT: 1620

* * *

target_or_test_system: Acetolactate synthase (Lolium rigidum)
assay_protocol: Inhibition of acetolactate synthase in Lolium rigidum accession A01 leaves extracts by acetolactate production assay
particulars: read-out: I50
Sequence (A7XBP7 whole entry): as the sequence (A7XBP7 1-516, change not shown) above
readout_label: pIC50
Reminder that pIC50 means the negative base-10 logarithm of the concentration expressed in mol/L.

INPUT: GET /values?readout=pIC50&system=Acetolactate synthase (Lolium rigidum)&item= COc1nc(C)nc(NC(=O)NS(=O)(=O)c2ccccc2Cl)n1 [CHLORSULFURON]
OUTPUT: 7.52

src = ChEMBL document CHEMBL3046358
